- testSummary: protein stability index of a GFP-peptide fusion (yeast GPS) (PSI 1-4); higher = more stable; sorted into four equal gates, so the index is relative within each strain
- testConditions: doa10∆
Values of protein stability index greater than or equal to 3 map to fulfilled; values below map to not fulfilled.

Textbook exercise: given the entry TQEEVELPLEDFKAKYC [RPB5] , state whether its protein stability index is greater than or equal to 3. fulfilled

Textbook exercise: given the entry VEISLVNGAKNLVVSGP [FAS1] , state whether its protein stability index is greater than or equal to 3. not fulfilled

Textbook exercise: given the entry YPDFRHYGLAVDIYTHF [DIS3] , state whether its protein stability index is greater than or equal to 3. not fulfilled

Textbook exercise: given the entry HVINVGKTWEKLVLAAR [RPS0A] , state whether its protein stability index is greater than or equal to 3. fulfilled

Textbook exercise: given the entry ASPSAHTSSSDGNNEIF [RPN4] , state whether its protein stability index is greater than or equal to 3. not fulfilled

Textbook exercise: given the entry ISAKDMGQGLCNNINKG [BRR2] , state whether its protein stability index is greater than or equal to 3. fulfilled

Textbook exercise: given the entry LNQLDGFETSKNIKIIM [RPT6] , state whether its protein stability index is greater than or equal to 3. not fulfilled

Textbook exercise: given the entry LLVVIFKKTLRSRISSP [SRB4] , state whether its protein stability index is greater than or equal to 3. not fulfilled

Textbook exercise: given the entry DLNPLKTLNLFKQIKSA [RPO31] , state whether its protein stability index is greater than or equal to 3. not fulfilled

Textbook exercise: given the entry TENVAQARIILNHILEK [YGR119C/NUP57] , state whether its protein stability index is greater than or equal to 3. not fulfilled

Textbook exercise: given the entry VVILARAKALGIKVTNP [RPL32] , state whether its protein stability index is greater than or equal to 3. fulfilled

Textbook exercise: given the entry QMTQIMDIMEDFLRYIN [SNF2] , state whether its protein stability index is greater than or equal to 3. not fulfilled

Textbook exercise: given the entry ALLIAGHDADDGYQLFH [PUP2] , state whether its protein stability index is greater than or equal to 3. not fulfilled

Textbook exercise: given the entry SVTAQVYKIALRLTEQK [RPC82] , state whether its protein stability index is greater than or equal to 3. not fulfilled

Textbook exercise: given the entry DPELLRSYIFGGHVSQY [RPL5] , state whether its protein stability index is greater than or equal to 3. fulfilled

Textbook exercise: given the entry TATAATNGNNAGGGSNK [MED6] , state whether its protein stability index is greater than or equal to 3. fulfilled

Textbook exercise: given the entry VFTALLRLFINEEGDWS [ITC1] , state whether its protein stability index is greater than or equal to 3. fulfilled

Textbook exercise: given the entry RKLAVERAGHLLCDKAQ [PRE5] , state whether its protein stability index is greater than or equal to 3. fulfilled

Textbook exercise: given the entry VCDLALRFGEGASGEER [PUP2] , state whether its protein stability index is greater than or equal to 3. not fulfilled
